Below, each entry is listed alongside its reported IC50.
# Test system: PC-3M
# Test Description: Cytotoxicity against human PC-3M cells assessed as reduction in cell viability by CCK-8 assay
# Format: functional, cell-based
Reported Property: IC50

[[record]]
compound = "C=C(C)[C@@H]1CC[C@]2(C(=O)OCCCCn3ccnc3)CC[C@]3(C)[C@H](C[C@@H](O)[C@@H]4[C@@]5(C)C(CC(=O)OC)OC(C)(C)C5CC[C@]43C)[C@@H]12 (stereo not given in full)"
assayed_target = "PC-3M"
test_value = "44.3 µM"

[[record]]
compound = "C=C(C)[C@@H]1CC[C@]2(C(=O)OCCCCCCn3ccnc3)CC[C@]3(C)[C@H](C[C@@H](O)[C@@H]4[C@@]5(C)C(CC(=O)OC)OC(C)(C)C5CC[C@]43C)[C@@H]12 (stereo not given in full)"
assayed_target = "PC-3M"
test_value = "19.7 µM"

[[record]]
compound = "C=C(C)[C@@H]1CC[C@]2(C(=O)OCCCn3cncn3)CC[C@]3(C)[C@H](C[C@@H](O)[C@@H]4[C@@]5(C)C(CC(=O)OC)OC(C)(C)C5CC[C@]43C)[C@@H]12 (stereo not given in full)"
assayed_target = "PC-3M"
test_value = "43.2 µM"

[[record]]
compound = "C=C(C)[C@@H]1CC[C@]2(C(=O)OCCCn3ccnc3)CC[C@]3(C)[C@H](C[C@H]4OC(=O)C[C@@H](O)[C@]5(C)[C@@H]4[C@@]3(C)CC[C@H]5C(=C)C)[C@@H]12"
assayed_target = "PC-3M"
test_value = "24.7 µM"

[[record]]
compound = "C=C(C)[C@@H]1CC[C@]2(C(=O)O)CC[C@]3(C)[C@H](C[C@@H](O)[C@@H]4[C@@]5(C)C(CC(=O)OC)OC(C)(C)C5CC[C@]43C)[C@@H]12 (stereo not given in full)"
assayed_target = "PC-3M"
test_value = "103 µM"

[[record]]
compound = "C=C(C)[C@@H]1CC[C@]2(C(=O)OCCCn3ccnc3C)CC[C@]3(C)[C@H](C[C@@H](O)[C@@H]4[C@@]5(C)C(CC(=O)OC)OC(C)(C)C5CC[C@]43C)[C@@H]12 (stereo not given in full)"
assayed_target = "PC-3M"
test_value = "34.4 µM"

[[record]]
compound = "C=C(C)[C@@H]1CC[C@]2(C(=O)OCCCn3cc(CCN)c4ccccc43)CC[C@]3(C)[C@H](C[C@H]4OC(=O)C[C@@H](O)[C@]5(C)[C@@H]4[C@@]3(C)CC[C@H]5C(=C)C)[C@@H]12"
assayed_target = "PC-3M"
test_value = "6.28 µM"

[[record]]
compound = "C=C(C)[C@@H]1CC[C@]2(C(=O)OCCCCCn3ccnc3CC)CC[C@]3(C)[C@H](C[C@H]4OC(=O)C[C@@H](O)[C@]5(C)[C@@H]4[C@@]3(C)CC[C@H]5C(=C)C)[C@@H]12"
assayed_target = "PC-3M"
test_value = "12.5 µM"

[[record]]
compound = "C=C(C)[C@@H]1CC[C@]2(C(=O)OCCCCCn3ccnc3CC)CC[C@]3(C)[C@H](C[C@@H](O)[C@@H]4[C@@]5(C)C(CC(=O)OC)OC(C)(C)C5CC[C@]43C)[C@@H]12 (stereo not given in full)"
assayed_target = "PC-3M"
test_value = "23.9 µM"

[[record]]
compound = "C=C(C)[C@@H]1CC[C@]2(C(=O)OCCCn3cncn3)CC[C@]3(C)[C@H](C[C@H]4OC(=O)C[C@@H](O)[C@]5(C)[C@@H]4[C@@]3(C)CC[C@H]5C(=C)C)[C@@H]12"
assayed_target = "PC-3M"
test_value = "34 µM"


====

# System: PC-3M
# Test Description: Cytotoxicity against human PC-3M cells assessed as reduction in cell viability by CCK-8 assay
# Assay type: functional, cell-based
Below, each entry is listed alongside its reported IC50.
Reported Property: IC50

[[record]]
molecule = "C=C(C)[C@@H]1CC[C@]2(C(=O)OCCCn3ccnc3CC)CC[C@]3(C)[C@H](C[C@H]4OC(=O)C[C@@H](O)[C@]5(C)[C@@H]4[C@@]3(C)CC[C@H]5C(=C)C)[C@@H]12"
reported_property = "IC50"
test_value = "12.3 µM"

[[record]]
molecule = "C=C(C)[C@@H]1CC[C@]2(C(=O)OCCCCCCCCCCn3cnc(C)c3)CC[C@]3(C)[C@H](C[C@@H](O)[C@@H]4[C@@]5(C)C(CC(=O)OC)OC(C)(C)C5CC[C@]43C)[C@@H]12 (stereo not given in full)"
reported_property = "IC50"
test_value = "12.7 µM"

[[record]]
molecule = "C=C(C)[C@@H]1CC[C@]2(C(=O)OCCCCCCCCCCn3ccnc3CC)CC[C@]3(C)[C@H](C[C@H]4OC(=O)C[C@@H](O)[C@]5(C)[C@@H]4[C@@]3(C)CC[C@H]5C(=C)C)[C@@H]12"
reported_property = "IC50"
test_value = "13.9 µM"

[[record]]
molecule = "C=C(C)[C@@H]1CC[C@]2(C(=O)OCCCCn3cc(CCN)c4ccccc43)CC[C@]3(C)[C@H](C[C@@H](O)[C@@H]4[C@@]5(C)C(CC(=O)OC)OC(C)(C)C5CC[C@]43C)[C@@H]12 (stereo not given in full)"
reported_property = "IC50"
test_value = "5.66 µM"

[[record]]
molecule = "C=C(C)[C@@H]1CC[C@]2(C(=O)OCCCCCCn3ccnc3CC)CC[C@]3(C)[C@H](C[C@@H](O)[C@@H]4[C@@]5(C)C(CC(=O)OC)OC(C)(C)C5CC[C@]43C)[C@@H]12 (stereo not given in full)"
reported_property = "IC50"
test_value = "19.6 µM"

[[record]]
molecule = "C=C(C)[C@@H]1CC[C@]2(C(=O)OCCCBr)CC[C@]3(C)[C@H](C[C@@H](O)[C@@H]4[C@@]5(C)C(CC(=O)OC)OC(C)(C)C5CC[C@]43C)[C@@H]12 (stereo not given in full)"
reported_property = "IC50"
test_value = "47.6 µM"

[[record]]
molecule = "C=C(C)[C@@H]1CC[C@]2(C(=O)OCCCCCCBr)CC[C@]3(C)[C@H](C[C@@H](O)[C@@H]4[C@@]5(C)C(CC(=O)OC)OC(C)(C)C5CC[C@]43C)[C@@H]12 (stereo not given in full)"
reported_property = "IC50"
test_value = "29 µM"

[[record]]
molecule = "C=C(C)[C@@H]1CC[C@]2(C(=O)OCCCCCn3ccnc3)CC[C@]3(C)[C@H](C[C@@H](O)[C@@H]4[C@@]5(C)C(CC(=O)OC)OC(C)(C)C5CC[C@]43C)[C@@H]12 (stereo not given in full)"
reported_property = "IC50"
test_value = "30.6 µM"

[[record]]
molecule = "C=C(C)[C@@H]1CC[C@]2(C(=O)OCCCCCn3cncn3)CC[C@]3(C)[C@H](C[C@H]4OC(=O)C[C@@H](O)[C@]5(C)[C@@H]4[C@@]3(C)CC[C@H]5C(=C)C)[C@@H]12"
reported_property = "IC50"
test_value = "54.3 µM"

[[record]]
molecule = "C=C(C)[C@@H]1CC[C@]2(C(=O)OCCCCCCCCCCn3ccnc3)CC[C@]3(C)[C@H](C[C@@H](O)[C@@H]4[C@@]5(C)C(CC(=O)OC)OC(C)(C)C5CC[C@]43C)[C@@H]12 (stereo not given in full)"
reported_property = "IC50"
test_value = "14 µM"


====

# System: PC-3M
# Test Description: Cytotoxicity against human PC-3M cells assessed as reduction in cell viability by CCK-8 assay
# Type: functional, cell-based
pIC50: −log10 of the molar value.
Below, each entry is listed alongside its reported pIC50.
Reported Property: pIC50

[[record]]
compound = "C=C(C)[C@@H]1CC[C@]2(C(=O)OCCCCn3cnc(C)c3)CC[C@]3(C)[C@H](C[C@@H](O)[C@@H]4[C@@]5(C)C(CC(=O)OC)OC(C)(C)C5CC[C@]43C)[C@@H]12 (stereo not given in full)"
test_value = 4.60

[[record]]
compound = "C=C(C)[C@@H]1CC[C@]2(C(=O)OCCCCCCn3cc(CCN)c4ccccc43)CC[C@]3(C)[C@H](C[C@H]4OC(=O)C[C@@H](O)[C@]5(C)[C@@H]4[C@@]3(C)CC[C@H]5C(=C)C)[C@@H]12"
test_value = 5.22

[[record]]
compound = "C=C(C)[C@@H]1CC[C@]2(C(=O)OCCCCn3cncn3)CC[C@]3(C)[C@H](C[C@@H](O)[C@@H]4[C@@]5(C)C(CC(=O)OC)OC(C)(C)C5CC[C@]43C)[C@@H]12 (stereo not given in full)"
test_value = 4.34

[[record]]
compound = "C=C(C)[C@@H]1CC[C@]2(C(=O)OCCCCn3ccnc3C)CC[C@]3(C)[C@H](C[C@@H](O)[C@@H]4[C@@]5(C)C(CC(=O)OC)OC(C)(C)C5CC[C@]43C)[C@@H]12 (stereo not given in full)"
test_value = 4.44

[[record]]
compound = "C=C(C)[C@@H]1CC[C@]2(C(=O)OCCCCCCCCCCn3cc(CCN)c4ccccc43)CC[C@]3(C)[C@H](C[C@H]4OC(=O)C[C@@H](O)[C@]5(C)[C@@H]4[C@@]3(C)CC[C@H]5C(=C)C)[C@@H]12"
test_value = 5.24

[[record]]
compound = "C=C(C)[C@@H]1CC[C@]2(C(=O)OCCCCCn3cc(CCN)c4ccccc43)CC[C@]3(C)[C@H](C[C@H]4OC(=O)C[C@@H](O)[C@]5(C)[C@@H]4[C@@]3(C)CC[C@H]5C(=C)C)[C@@H]12"
test_value = 5.41

[[record]]
compound = "C=C(C)[C@@H]1CC[C@]2(C(=O)OCCCCBr)CC[C@]3(C)[C@H](C[C@@H](O)[C@@H]4[C@@]5(C)C(CC(=O)OC)OC(C)(C)C5CC[C@]43C)[C@@H]12 (stereo not given in full)"
test_value = 4.27

[[record]]
compound = "C=C(C)[C@@H]1CC[C@]2(C(=O)OCCCCCBr)CC[C@]3(C)[C@H](C[C@@H](O)[C@@H]4[C@@]5(C)C(CC(=O)OC)OC(C)(C)C5CC[C@]43C)[C@@H]12 (stereo not given in full)"
test_value = 4.36

[[record]]
compound = "C=C(C)[C@@H]1CC[C@]2(C(=O)OCCCn3ccnc3C)CC[C@]3(C)[C@H](C[C@H]4OC(=O)C[C@@H](O)[C@]5(C)[C@@H]4[C@@]3(C)CC[C@H]5C(=C)C)[C@@H]12"
test_value = 4.80

[[record]]
compound = "C=C(C)[C@@H]1CC[C@]2(C(=O)OCCCCCCn3ccnc3C)CC[C@]3(C)[C@H](C[C@@H](O)[C@@H]4[C@@]5(C)C(CC(=O)OC)OC(C)(C)C5CC[C@]43C)[C@@H]12 (stereo not given in full)"
test_value = 4.68

